tested on: Bacillus subtilis; assay: Antimicrobial activity against Bacillus subtilis assessed as inhibition of colony formation at 5 uM preincubated for 4 hrs and measured after overnight incubation by CFU assay; type: functional
Exercise: state measured inhibition at 5 µM for each of the compounds provided.
Please state the figure in %; there is no need to write the unit.

The compound C[n+]1ccn(CCCCCCCCCCCCCCn2cc[n+](C)c2)c1 showed inhibition at 5 µM equal to 8

The compound CCCCCCCCCCC[n+]1ccn(CCCCCCCCCCCCCCCCn2cc[n+](CCCCCCCCCCC)c2)c1 showed inhibition at 5 µM equal to 100

The compound CCCCCCCCCCCC[n+]1ccn(CCCCCCCCCCn2cc[n+](CCCCCCCCCCCC)c2)c1 showed inhibition at 5 µM equal to 100

The compound CCCCCCCC[n+]1ccn(CCCCCCCCCCn2cc[n+](CCCCCCCC)c2)c1 showed inhibition at 5 µM equal to 100
